# STUDY TARGET: FOXC2 DBD WT (UniProt Q99958 72-172)
# Sequence: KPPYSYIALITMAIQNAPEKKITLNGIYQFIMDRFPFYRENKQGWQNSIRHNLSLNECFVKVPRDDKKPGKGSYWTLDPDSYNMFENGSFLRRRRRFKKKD
# METHOD NOTES: SELEX-seq (GST pull-down, four rounds, 16-nt random library); pH 7.0; 20 mM HEPES, 140 mM KCl, 0.05 mM TCEP-HCl, pH 7.0, room temperature, 30 min; 2.5 uM GST-FOXC2 DBD, 0.25 uM DNA library; high values mean tight binding
# CONDITION NOTES: protein: recombinant; tags: N-terminal GST (pGEX-6P-2); dsDNA, one strand shown
Over roughly 1,100 sequences, “relative enrichment” has its median near 0.38; the highest 2% begin near 0.66. This excerpt belongs to a sample that is enriched for the highest values.
binding signal of 0.4 relative enrichment or higher: Criterion met. Under 0.4 relative enrichment: Criterion not met.

Consider the worked cases shown below.
[[record]]
monomer_sequence = "ATACGC"
group_label = "Criterion met"

[[record]]
monomer_sequence = "AGGTTG"
group_label = "Criterion not met"

[[record]]
monomer_sequence = "ATATGC"
group_label = "Criterion not met"

[[record]]
monomer_sequence = "ACGAAA"
group_label = "Criterion not met"

[[record]]
monomer_sequence = "TCAATC"
group_label = "Criterion met"

[[record]]
monomer_sequence = "ACTCGT"
group_label = "Criterion met"

[[record]]
monomer_sequence = "AAAGTT"
group_label = "Criterion not met"

[[record]]
monomer_sequence = "AGTACA"
group_label = "Criterion not met"

[[record]]
monomer_sequence = "ATAGCA"
group_label = "Criterion not met"

[[record]]
monomer_sequence = "ACATGT"
group_label = "Criterion not met"


Data request: Please indicate if the recorded binding signal for TGCAAA meets or exceeds 0.4 relative enrichment.
Data returned: Criterion not met

Data request: Quick check: does AGTACT have binding signal greater than or equal to 0.4 relative enrichment?
Data returned: Criterion met

----------
# Lookup of reported binding signal keyed by entry
# STUDY TARGET: FOXC2 DBD WT (UniProt Q99958 72-172)
# Sequence: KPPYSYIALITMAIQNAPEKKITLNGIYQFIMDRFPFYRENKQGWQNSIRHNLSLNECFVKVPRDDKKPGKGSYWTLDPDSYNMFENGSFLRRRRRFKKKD
# METHOD NOTES: SELEX-seq (GST pull-down, four rounds, 16-nt random library); pH 7.0; 20 mM HEPES, 140 mM KCl, 0.05 mM TCEP-HCl, pH 7.0, room temperature, 30 min; 2.5 uM GST-FOXC2 DBD, 0.25 uM DNA library; high values mean tight binding
# CONDITION NOTES: protein: recombinant; tags: N-terminal GST (pGEX-6P-2); dsDNA, one strand shown
The full ranking holds about 1,100 sequences; the median of “relative enrichment” is about 0.38, and the highest 2% start at about 0.66. What follows is part of a selection rich in the highest values, with near analogues and random picks from the rest.
The reply should contain only the number, in relative enrichment.

Recorded binding signal, per entry:
[[record]]
monomer_sequence = "AATCGC"
unit_name = "relative enrichment"
test_result = 0.406

[[record]]
monomer_sequence = "CATAAG"
unit_name = "relative enrichment"
test_result = 0.406

[[record]]
monomer_sequence = "CTCTTG"
unit_name = "relative enrichment"
test_result = 0.394

[[record]]
monomer_sequence = "ACTGCT"
unit_name = "relative enrichment"
test_result = 0.412


Data request: I'd like to know its binding signal. The sequence in question is ATAGAA
Data returned: 0.4

Data request: Report binding signal for TAATAA please.
Data returned: 0.399

----------
# STUDY TARGET: FOXC2 DBD WT (UniProt Q99958 72-172)
# Sequence: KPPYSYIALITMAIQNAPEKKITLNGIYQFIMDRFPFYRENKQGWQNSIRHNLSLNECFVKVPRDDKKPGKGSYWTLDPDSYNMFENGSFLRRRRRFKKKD
# METHOD NOTES: SELEX-seq (GST pull-down, four rounds, 16-nt random library); pH 7.0; 20 mM HEPES, 140 mM KCl, 0.05 mM TCEP-HCl, pH 7.0, room temperature, 30 min; 2.5 uM GST-FOXC2 DBD, 0.25 uM DNA library; high values mean tight binding
# CONDITION NOTES: protein: recombinant; tags: N-terminal GST (pGEX-6P-2); dsDNA, one strand shown
Over roughly 1,100 sequences, “relative enrichment” has its median near 0.38; the highest 2% begin near 0.66. This excerpt belongs to a sample that is enriched for the highest values.
EXPERIMENTAL READOUT: binding signal (relative enrichment)
Number in relative enrichment, nothing else.

[[record]]
monomer_sequence = "CTCTTA"
experimental_readout = "binding signal"
test_result = 0.325


Data request: # returns recorded binding signal (system: FOXC2 DBD WT (UniProt Q99958 72-172)) for CACTTA
Data returned: 0.321

Data request: Record lookup: for FOXC2 DBD WT (UniProt Q99958 72-172), what binding signal belongs to CTGTTA ?
Data returned: 0.238

Data request: Give recorded binding signal with FOXC2 DBD WT (UniProt Q99958 72-172) for the following sequence: AAGCTC
Data returned: 0.44

Data request: Request body: readout binding signal, system FOXC2 DBD WT (UniProt Q99958 72-172), query TACTTC . Return the value.
Data returned: 0.678

----------
# STUDY TARGET: FOXC2 DBD WT (UniProt Q99958 72-172)
# Sequence: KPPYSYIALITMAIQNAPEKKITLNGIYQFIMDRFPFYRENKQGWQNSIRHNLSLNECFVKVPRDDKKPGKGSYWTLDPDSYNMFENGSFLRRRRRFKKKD
# METHOD NOTES: SELEX-seq (GST pull-down, four rounds, 16-nt random library); pH 7.0; 20 mM HEPES, 140 mM KCl, 0.05 mM TCEP-HCl, pH 7.0, room temperature, 30 min; 2.5 uM GST-FOXC2 DBD, 0.25 uM DNA library; high values mean tight binding
# CONDITION NOTES: protein: recombinant; tags: N-terminal GST (pGEX-6P-2); dsDNA, one strand shown
The full ranking holds about 1,100 sequences; the median of “relative enrichment” is about 0.38, and the highest 2% start at about 0.66. Shown is part of a subset that was picked to be rich in the highest values.
With a cut-off of 0.4 relative enrichment, any binding signal strictly below it is called Fulfilled; any binding signal meeting it or above is called Not fulfilled.

These solved cases illustrate the format of a correct answer.
[[record]]
monomer_sequence = "CACTGC"
group_label = "Not fulfilled"

[[record]]
monomer_sequence = "CTCATT"
group_label = "Fulfilled"

[[record]]
monomer_sequence = "CAATGG"
group_label = "Not fulfilled"

[[record]]
monomer_sequence = "AATCGT"
group_label = "Fulfilled"


Data request: Determine if ACTTGA shows binding signal strictly lower than 0.4 relative enrichment.
Data returned: Fulfilled

Data request: Is it true that binding signal reported for AACTAC is less than 0.4 relative enrichment?
Data returned: Fulfilled

Data request: Strictly below 0.4 relative enrichment in binding signal? AAAGTG
Data returned: Fulfilled

Data request: Does the reported binding signal of ATTAGG stay below 0.4 relative enrichment?
Data returned: Fulfilled

Data request: Quick check: binding signal of AACGTC under 0.4 relative enrichment?
Data returned: Fulfilled

Data request: Is the reported binding signal for AAACCC strictly below 0.4 relative enrichment?
Data returned: Fulfilled

Data request: Is binding signal of ATAAGC strictly below 0.4 relative enrichment?
Data returned: Not fulfilled

Data request: Take the sequence TTCCTA and say whether its binding signal is less than 0.4 relative enrichment.
Data returned: Fulfilled

Data request: Would you kindly verify if binding signal of GTAAAC is strictly less than 0.4 relative enrichment?
Data returned: Not fulfilled

Data request: Strictly below 0.4 relative enrichment in binding signal? AAAACA
Data returned: Fulfilled

Data request: Could you please tell me whether binding signal recorded for ATAAAC is less than 0.4 relative enrichment?
Data returned: Not fulfilled

Data request: hey, is binding signal for TTCTTC lower than 0.4 relative enrichment or not?
Data returned: Not fulfilled

Data request: hey, is binding signal for GTGTCA lower than 0.4 relative enrichment or not?
Data returned: Fulfilled

Data request: Quick check: binding signal of GCCATA under 0.4 relative enrichment?
Data returned: Fulfilled

Data request: Input ACTAAT ; condition: binding signal strictly below 0.4 relative enrichment. Does it hold?
Data returned: Fulfilled

----------
binding signal values, listed per item
# STUDY TARGET: FOXC2 DBD WT (UniProt Q99958 72-172)
# Sequence: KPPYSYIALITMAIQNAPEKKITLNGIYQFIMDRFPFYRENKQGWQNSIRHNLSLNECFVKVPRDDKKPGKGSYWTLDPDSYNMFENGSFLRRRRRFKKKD
# METHOD NOTES: SELEX-seq (GST pull-down, four rounds, 16-nt random library); pH 7.0; 20 mM HEPES, 140 mM KCl, 0.05 mM TCEP-HCl, pH 7.0, room temperature, 30 min; 2.5 uM GST-FOXC2 DBD, 0.25 uM DNA library; high values mean tight binding
# CONDITION NOTES: protein: recombinant; tags: N-terminal GST (pGEX-6P-2); dsDNA, one strand shown
The full ranking holds about 1,100 sequences; the median of “relative enrichment” is about 0.38, and the highest 2% start at about 0.66. The list comes from a sample in which the highest values are over-represented; it also holds close analogues and randomly drawn sequences.

[[record]]
monomer_sequence = "ATGTTA"
study_target = "FOXC2 DBD WT (UniProt Q99958 72-172)"
experimental_readout = "binding signal"
test_result = "0.428 relative enrichment"

[[record]]
monomer_sequence = "CAACGC"
study_target = "FOXC2 DBD WT (UniProt Q99958 72-172)"
experimental_readout = "binding signal"
test_result = "0.322 relative enrichment"


Data request: For FOXC2 DBD WT (UniProt Q99958 72-172), provide binding signal of AAATTC please.
Data returned: 0.343 relative enrichment
